Kindly supply the reported mean fluorescence intensity (MFI) values for the records listed here.
tested.target: T1, wild-type EGFR protein on the surfaces of A431 tumor cells and normal human primary hepatocytes (human, UniProt P00533 25-1210)
T1 construct: whole, on cells; Same protein on two cell types; also called human epidermal growth factor receptor; her-1
assay.procedure: FACS, normal human primary hepatocytes
Protocol: The preparation of U87MG-EGFRvIII required for FACS detection is as described in the preparation of the immunogen B in example 1. Normal human primary hepatocytes are purchased from BioreclamationIVT, and A431 tumor cells are purchased from ATCC. […] The plate is centrifugally washed twice with the FACS buffer, added with 100 μL/well of a 1:1000 diluted fluorescence (Alexa 488) labeled secondary antibody (purchased from Invitrogen), and incubated on ice for 1 hour. […]
One number for each entry, in MFI.

INSERT INTO assay_data (binder, data_value) VALUES
  ('Humanized antibody h63A10A7-19 (antibody, human IgG1, V domains shown, Human IgG1 constant region, human kappa constant region) VH: QVQLVQSGAEVKKPGASVKVSCKASGYTFISFTMHWVKQRPGQGLEWMGYINPNSGYTKYNQKFKDKATMTRDTSTSTVYMELSSLRSEDTAVYYCTRGGGRGFAYWGQGTLVTVSS VL: DILMTQSPSSLSASVGDRVTITCHASQDINSNIGWLQQKPGKSFKALIYHGTNLEDGVPSRFSGSGSGADYTLTISSLQPEDFATYYCVQYAQFPFTFGQGTKLEIK', 439),
  ('Chimeric antibody c63A10A7 (antibody, human IgG1, V domains shown, also called chimeric antibody 63A10) VH: QVQLQQSGAELARPGASVKMSCKASGYTFISFTMHWVKQRPGQGLEWIGYINPNSGYTKYNQKFKDKATLTAGQSSSTAYMQLSSLTSEDSAVYYCTRGGGRGFAYWGQGTLVTVSA VL: DILMTQSPSSMSVSLGDTVTITCHASQDINSNIGWLQQKPGKSFKALIYHGTNLEDGVPSRFSGSGSGADYSLTISSLESEDFADYYCVQYAQFPFTFGSGTKLEIK', 299),
  ('Humanized antibody h63A10A7-23 (antibody, human IgG1, V domains shown, Human IgG1 constant region, human kappa constant region) VH: QVQLVQSGAEVKKPGASVKVSCKASGYTFISFTMHWVKQRPGQGLEWIGYINPNSGYTKYNQKFKDKATLTRDTSTSTVYMELSSLRSEDTAVYYCTRGGGRGFAYWGQGTLVTVSS VL: DILMTQSPSSLSASVGDRVTITCHASQDINSNIGWLQQKPGKAPKALIYHGTNLEDGVPSRFSGSGSGADYTLTISSLQPEDFATYYCVQYAQFPFTFGQGTKLEIK', 661);

Query string: # get_value(readout='mean fluorescence intensity (MFI)', item= Humanized antibody h63A10A7-39 (antibody, human IgG1, V domains shown, Human IgG1 constant region, human kappa constant region) VH: QVQLVQSGAEVKKPGASVKVSCKASGYTFISFTMHWVKQRPGQGLEWIGYINPNSGYTKYNQKFKDRVTLTRDTSTSTVYMELSSLRSEDTAVYYCTRGGGRGFAYWGQGTLVTVSS VL: DIQMTQSPSSLSASVGDRVTITCHASQDINSNIGWLQQKPGKSFKALIYHGTNLEDGVPSRFSGSGSGADYTLTISSLQPEDFATYYCVQYAQFPFTFGQGTKLEIK )
Result string: 261
